System: Serine/threonine-protein kinase mTOR (Homo sapiens, UniProt P42345) | Read-out: IC50 | Origin: multiple publications

Solved cases below.
compound: NC(=O)c1nc(-c2cccc(O)c2)nc2c1[nH]c(=O)n2-c1ccc(C(F)(F)F)cc1
result type: IC50
measured value: > 30000 nM

compound: CC(O)C(=O)Nc1cccc(-c2ccc3c(N4CCOCC4)nc(-c4cnc(N)nc4)nc3c2)c1 (stereo not shown)
result type: IC50
measured value: < 50 nM

compound: NC(=O)c1nc(-c2cccc(O)c2)nc2c1[nH]c(=O)n2-c1ccc(Cl)cc1Cl
result type: IC50
measured value: 5100 to 10000 nM

Give measured IC50 for "Cc1nn(C)cc1-n1c(=O)[nH]c2cnc3ccc(-c4cnc(N(C)C)nc4)cc3c21" (Serine/threonine-protein kinase mTOR (Homo sapiens, UniProt P42345)).
11 nM

###

pIC50: −log10 of the molar value.
System: Serine/threonine-protein kinase mTOR (Homo sapiens) | Read-out: pIC50 | Origin: multiple publications

smiles entry: NS(=O)(=O)c1cccc2c1C(=O)c1cccc(O)c1C2=O
result type: pIC50
measured value: < 4.00
//
smiles entry: CS(=O)(=O)Nc1cccc(-c2cnc3c(N4CCOCC4)nc(-c4cnc(N)nc4)nc3c2)c1
result type: pIC50
measured value: > 7.30
//
smiles entry: O=c1[nH]c2ncc(-c3ccc4[nH]ccc4c3)cc2n1CC1CC1
result type: pIC50
measured value: > 7.30
//
smiles entry: C[C@H]1COCCN1c1nc(-c2ccc(NC(=O)NC3CC3)cc2)nc2c1S(=O)(=O)CC2
result type: pIC50
measured value: > 7.00
//
smiles entry: CCNC(=O)Nc1ccc(-c2nc3c(c(N4CCOC[C@@H]4C)n2)CS(=O)(=O)C(C)(C)C3)cc1
result type: pIC50
measured value: > 7.00

Next compound, pIC50 to be filled in.
Give measured pIC50 for "COc1cc(-c2cccc(NS(=O)(=O)CCC(F)(F)F)c2F)cc2c(N3CCOCC3)nc(-c3ccc(N)nc3)nc12" (Serine/threonine-protein kinase mTOR (Homo sapiens)).
6.00 to 7.00

###

pIC50: −log10 of the molar value.
System: Serine/threonine-protein kinase mTOR (Homo sapiens, UniProt P42345) | Read-out: pIC50 | Origin: multiple publications

Solved cases below.
compound: CN(C)C(=O)c1ccc(NC(=O)Nc2ccc(-c3nc(N4CCOCC4)c4ccc(-c5cncc(F)c5)cc4n3)cc2)cc1
result type: pIC50
measured value: > 7.30

compound: CNc1ncc(-c2nc(N3CCOCC3)c3nc(N4C[C@@H](C)N[C@@H](C)C4)n(CC4CCOC4)c3n2)cn1 (stereo partly drawn)
result type: pIC50
measured value: 6.30 to 7.00

compound: CCOc1cc(-c2cccc(NS(=O)(=O)CCCF)c2F)cc2c(N3CCOC[C@H]3C)nc(-c3cnc4[nH]ccc4c3)nc12
result type: pIC50
measured value: 6.00 to 7.00

compound: CC(CO)(CO)C(=O)N1CCC(c2nc3c(-c4ccc(-c5ccccc5)nc4)cnn3c3c2C(=O)CCN3)CC1
result type: pIC50
measured value: > 8.00

compound: CN(C)C(=O)c1ccc(NC(=O)Nc2ccc(-c3nc(N4CCOCC4)c4cccc(-c5cccc(O)c5)c4n3)cc2)cc1
result type: pIC50
measured value: > 7.30

compound: CC(=O)Nc1ccc(NC(=O)Nc2ccc(-c3nc(N4CCOCC4)c4ccc(-c5ccc(C)o5)cc4n3)cc2)cc1
result type: pIC50
measured value: 6.70 to 7.30

compound: CN(C)CCNC(=O)c1ccc2c(N3CCOCC3)nc(-c3ccc(NC(=O)Nc4ccc(C(=O)N(C)C)cc4)cc3)nc2c1
result type: pIC50
measured value: > 7.30

compound: NC(=O)c1nc(-c2cccnc2)nc2c1[nH]c(=O)n2C1CCCCCC1
result type: pIC50
measured value: 5.30 to 7.00

Next compound, pIC50 to be filled in.
Give measured pIC50 for "CC(=O)Nc1cncc(-c2cnc3c(N4CCOCC4)nc(-c4cnc(N)nc4)nc3c2)c1" (Serine/threonine-protein kinase mTOR (Homo sapiens, UniProt P42345)).
5.00 to 6.70

###

System: Serine/threonine-protein kinase mTOR (Homo sapiens, UniProt P42345) | Read-out: IC50 | Origin: multiple publications

Solved cases below.
compound: COc1ccc(-c2ccnc(-c3cn(C)c(=O)n3-c3ccc(N4CCNCC4)c(C(F)(F)F)c3)c2)cn1
target: Serine/threonine-protein kinase mTOR (Homo sapiens, UniProt P42345)
IC50: 100 to 10000 nM
--
compound: CC(C)Nc1ccc(-c2nc(N3CCOCC3)c3nc(-c4cccc(NS(=O)(=O)CCCF)c4F)ccc3n2)cn1
target: Serine/threonine-protein kinase mTOR (Homo sapiens, UniProt P42345)
IC50: 100 to 1000 nM
--
compound: Cc1nc(N)ncc1-c1nc(N2CCOC[C@@H]2C)c2nc(-c3cccc(NS(=O)(=O)c4cc(F)ccc4F)c3F)ccc2n1
target: Serine/threonine-protein kinase mTOR (Homo sapiens, UniProt P42345)
IC50: 100 to 1000 nM
--
compound: CC(c1ccc(Cl)cc1)n1c(=O)[nH]c2ncc(-c3cccc4ncccc34)nc21 (centres unmarked)
target: Serine/threonine-protein kinase mTOR (Homo sapiens, UniProt P42345)
IC50: 5100 to 10000 nM

Next compound, IC50 to be filled in.
Return value of IC50 for input "Cn1cc(-c2cc(-c3cnc4[nH]ccc4c3)ccn2)n(-c2cc(F)cc(C#N)c2)c1=O" , no commentary.
100 to 10000 nM

###

System: Serine/threonine-protein kinase mTOR (Homo sapiens, UniProt P42345) | Read-out: IC50 | Origin: multiple publications

Solved cases below.
compound: O=S1(=O)CCC(c2nc3c(-c4ccc(-c5cccnc5)nc4)cnn3c3[nH]ncc23)CC1
measured value: 10 to 100 nM

compound: CC(C)n1nc(-c2cc3ccccc3[nH]2)c2c(N)ncnc21
measured value: 79 nM

compound: Cc1noc(C)c1-n1c(=O)n(C)c2cnc3ccc(-c4cnc(N)c(C(F)(F)F)c4)cc3c21
measured value: 432 nM

compound: O=c1[nH]c2ncc(-c3cnc4[nH]ccc4n3)cc2n1CC1CCOCC1
measured value: 50 to 100 nM

compound: CC(C)n1c(=O)n(C)c2nnc3cc(F)c(-c4ccc(OCCCN(C)C)nc4)cc3c21
measured value: > 10000 nM

Give measured IC50 for "CC[C@H]1[C@H](c2cccc(OC)c2)OC(=O)N1c1cc(-c2cnc(N)nc2C(F)(F)F)nc(N2CCOCC2)n1" (Serine/threonine-protein kinase mTOR (Homo sapiens, UniProt P42345)).
4700 nM

Give measured IC50 for "CN(C)C(=O)c1ccc(NC(=O)Nc2ccc(-c3nc(N4CCOCC4)c4cc(F)c(-c5cccnc5)cc4n3)cc2)c(F)c1" (Serine/threonine-protein kinase mTOR (Homo sapiens, UniProt P42345)).
< 50 nM

Give measured IC50 for "Nc1ncc(-c2nc(N3CCOCC3)c3ncc(-c4cccc(NC(=O)CN5CCOCC5)c4)cc3n2)cn1" (Serine/threonine-protein kinase mTOR (Homo sapiens, UniProt P42345)).
< 50 nM

Give measured IC50 for O=c1[nH]c2ncc(-c3cnc4[nH]ccc4c3)cc2n1CC1CCCOC1 (stereo not drawn) (Serine/threonine-protein kinase mTOR (Homo sapiens, UniProt P42345)).
< 50 nM

###

System: Serine/threonine-protein kinase mTOR (Homo sapiens) | Read-out: IC50 | Origin: multiple publications

Solved cases below.
smiles entry: COc1cc(CC(C)(C)Nc2nc(N3CCOCC3)nc(-n3c(C(F)F)nc4ccccc43)n2)ccc1F
IC50: > 500 nM
//
smiles entry: CCN(C)c1cc(-c2ccc3ncc4c(c3c2)n(-c2cn(C)nc2C)c(=O)n4C)cnc1C
IC50: < 3 nM
//
smiles entry: Nc1ncc(-c2nc(N3CCOCC3)c3ncc(-c4ccc(C(=O)NC5CC5)cc4)cc3n2)cn1
IC50: < 50 nM
//
smiles entry: NC(=O)c1nc(-c2cccnc2)nc2c1ncn2-c1ccccc1
IC50: 20100 to 30000 nM
//
smiles entry: CC(C)(C#N)c1ccc(-n2nnc3cnc4ccc(-c5cnc(N)c(C(F)(F)F)c5)nc4c32)cc1
IC50: < 100 nM
//
smiles entry: CCc1nc2cnc3ccc(-c4cnc(N)c(C(F)(F)F)c4)nc3c2n1C1CCOCC1
IC50: < 100 nM

Give measured IC50 for "O=c1[nH]c2ncc(-c3cnc4[nH]ccc4c3)cc2n1CC1CCOCC1" (Serine/threonine-protein kinase mTOR (Homo sapiens)).
< 50 nM

Give measured IC50 for "CN1CCN(c2ccc(-n3c(-c4cc(-c5cnc6[nH]ccc6c5)ccn4)cn(C)c3=O)cc2)CC1" (Serine/threonine-protein kinase mTOR (Homo sapiens)).
100 to 10000 nM
